Hey, just so you know, these numbers are from patent US9422321B2.

# assay-procedure: MTT test of cytotoxicity on HepG2.2.15 cells
# Format: cell-based
# recorded-conditions: human, read-out: CC50 (μM) (HepG2. 2. 15)
For each entry below, report its CC50 at 72 h value.

Record excerpt, results attached:
| molecule | CC50 at 72 h |
| --- | --- |
| CN(C)c1ccn([C@@H]2O[C@@](CO)(N=[N+]=[N-])C(O)C2F)c(=O)n1 (stereo partly shown) | > 250 µM |
| COC(=O)[C@H](CO)Nc1ccn([C@@H]2O[C@@](CO)(N=[N+]=[N-])C(O)C2F)c(=O)n1 (stereo partly shown) | > 250 µM |
| [N-]=[N+]=N[C@]1(CO)O[C@@H](n2ccc(NCCN)nc2=O)C(F)C1O (stereo partly shown) | ≥ 25 µM |
| [N-]=[N+]=N[C@]1(CO)O[C@@H](n2ccc(N3CCOCC3)nc2=O)C(F)C1O (stereo partly shown) | 700 µM |
| [N-]=[N+]=N[C@]1(CO)O[C@@H](n2ccc(NCc3ccco3)nc2=O)C(F)C1O (stereo partly shown) | ≥ 25 µM |

Parameter requested: CC50 at 72 h. Apply to each item below.
1. COC(=O)[C@H](Nc1ccn([C@@H]2O[C@@](CO)(N=[N+]=[N-])C(O)C2F)c(=O)n1)C(C)C (stereo partly shown)
2. [N-]=[N+]=N[C@]1(CO)O[C@@H](n2ccc(NCC(=O)O)nc2=O)C(F)C1O (stereo partly shown)
3. COC(=O)[C@H](Cc1ccccc1)Nc1ccn([C@@H]2O[C@@](CO)(N=[N+]=[N-])C(O)C2F)c(=O)n1 (stereo partly shown)
4. COC(=O)[C@H](CCSC)Nc1ccn([C@@H]2O[C@@](CO)(N=[N+]=[N-])C(O)C2F)c(=O)n1 (stereo partly shown)
5. CNc1ccn([C@@H]2O[C@@](CO)(N=[N+]=[N-])C(O)C2F)c(=O)n1 (stereo partly shown)

Resp:
> 250 µM
> 250 µM
> 250 µM
> 250 µM
> 250 µM
